For each record, write down the corresponding IC50.
target: Phosphatidylinositol 4,5-bisphosphate 3-kinase catalytic subunit gamma isoform (Mus musculus); experiment: Inhibition of PI3Kgamma in c5a-stimulated mouse RAW264.7 cells assessed as reduction in AKT phosphorylation at S473 residue incubated for 30 mins
Sequence (Q9JHG7 whole entry, canonical isoform): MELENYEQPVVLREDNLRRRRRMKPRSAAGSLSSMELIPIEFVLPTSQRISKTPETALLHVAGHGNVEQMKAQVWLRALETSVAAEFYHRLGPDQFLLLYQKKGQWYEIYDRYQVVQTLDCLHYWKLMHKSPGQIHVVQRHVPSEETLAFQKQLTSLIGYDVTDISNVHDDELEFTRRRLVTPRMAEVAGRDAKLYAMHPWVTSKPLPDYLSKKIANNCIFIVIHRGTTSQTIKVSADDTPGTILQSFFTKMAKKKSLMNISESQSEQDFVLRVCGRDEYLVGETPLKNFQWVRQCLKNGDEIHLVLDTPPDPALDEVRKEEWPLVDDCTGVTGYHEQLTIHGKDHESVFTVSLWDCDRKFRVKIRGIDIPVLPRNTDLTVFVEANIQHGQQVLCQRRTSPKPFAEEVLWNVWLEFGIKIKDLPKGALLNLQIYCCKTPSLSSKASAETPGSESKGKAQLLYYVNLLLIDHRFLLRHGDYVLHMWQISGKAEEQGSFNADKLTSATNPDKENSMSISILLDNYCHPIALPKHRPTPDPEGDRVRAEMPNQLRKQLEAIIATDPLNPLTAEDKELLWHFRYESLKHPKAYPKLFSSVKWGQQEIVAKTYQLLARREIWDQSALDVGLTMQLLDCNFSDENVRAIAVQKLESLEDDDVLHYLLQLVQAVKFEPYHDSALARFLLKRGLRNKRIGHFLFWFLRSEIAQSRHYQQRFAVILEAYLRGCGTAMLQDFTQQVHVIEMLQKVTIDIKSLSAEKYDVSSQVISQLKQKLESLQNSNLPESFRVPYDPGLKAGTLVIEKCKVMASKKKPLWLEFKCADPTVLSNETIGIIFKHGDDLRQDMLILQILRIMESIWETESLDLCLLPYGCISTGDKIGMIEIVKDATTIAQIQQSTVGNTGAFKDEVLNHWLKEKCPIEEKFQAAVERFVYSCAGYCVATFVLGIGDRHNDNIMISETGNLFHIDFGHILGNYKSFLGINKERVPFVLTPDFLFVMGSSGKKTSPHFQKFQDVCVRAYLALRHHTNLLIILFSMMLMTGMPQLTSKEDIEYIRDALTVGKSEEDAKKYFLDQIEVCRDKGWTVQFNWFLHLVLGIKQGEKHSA
Numbers only, in µM.

Dear colleague, could you please provide IC50 for the compounds listed below?
1. C[C@H]1CC[C@@H](c2nc3cccc(Cl)c3c(=O)n2-c2cccc(F)c2)N1c1ncnc2[nH]cnc12
2. CC[C@H](Nc1ncnc2[nH]cnc12)c1nc2cccc(F)c2c(=O)n1-c1ccccc1

stdout:
[0.571, 1.3]

###

assay: MRT in Sprague-Dawley rat at 5 mg/kg, po incubated for 5 to 24 hrs by LC-MS/MS analysis; format: ADME, organism-based; conditions: in vivo, time 5-24 hrs
property: MRT (h)
One number for each entry, in h.

stdin: # get_value(readout='MRT', item= `C[C@H]1CC[C@@H](c2nc3cccc(Cl)c3c(=O)n2-c2cccc(F)c2)N1c1ncnc2[nH]cnc12` )
stdout: 5.96

###

Assignment: determine reported inhibition for the given compounds.
target: Phosphatidylinositol 4,5-bisphosphate 3-kinase catalytic subunit delta isoform (Homo sapiens); assay: Inhibition of PI3Kdelta (unknown origin) at 0.01 uM using phosphatidylinositol as substrate incubated for 30 mins in presence of ATP by HTRF based assay relative to control
Numbers only, in %.

These solved cases illustrate the format of a correct answer.
{"columns": ["compound-structure", "inhibition (%)"],
 "data": [
  ["O=c1c2c(Cl)cccc2nc([C@@H]2CC(F)(F)CN2c2ncnc3[nH]ccc23)n1-c1ccccc1", 4],
  ["Nc1ccnc(N2[C@H](c3nc4cccc(Cl)c4c(=O)n3-c3ccccc3)C[C@@H]3CCCC[C@@H]32)n1", -1],
  ["Cc1ccnc(N2[C@H](c3nc4cccc(Cl)c4c(=O)n3-c3ccccc3)C[C@@H]3CCCC[C@@H]32)n1", -1]
]}

# evaluate next
stdin: I would be grateful if you could share the reported inhibition for `O=c1c2c(Cl)cccc2nc([C@@H]2CC3(CC3)CN2c2ncnc3[nH]cnc23)n1-c1ccccc1` .
stdout: 3

###

conditions: human, microsomes, 10 µM
Field: label. Allowed values: Condition met (CLH < 10 mL/min/g) or Condition not met (CLH >= 10 mL/min/g).

{"columns": ["compound-structure", "group-label"],
 "data": [
  ["C[C@H]1CC[C@@H](c2nc3cccc(Cl)c3c(=O)n2-c2cccc(F)c2)N1c1ncnc(N)c1C#N", "Condition not met"]
]}

stdin: Field: below-cutoff. Rule: recorded CLH strictly less than 10 mL/min/g. Subject: `N#Cc1c(N)ncnc1N1[C@H](c2nc3cccc(Cl)c3c(=O)n2-c2cccnc2)C[C@@H]2CCCC[C@@H]21`
stdout: Condition met

stdin: Does the reported CLH of the following compound sit strictly below 10 mL/min/g? `N#Cc1c(N)ncnc1N1[C@H](c2nc3cccc(Cl)c3c(=O)n2-c2ccccc2)C[C@@H]2CCCC[C@@H]21`
stdout: Condition not met

stdin: Hello, I'm reviewing records and need to know if CLH of `N#Cc1c(N)ncnc1N1[C@H](c2nc3cccc(Cl)c3c(=O)n2N2CCOCC2)C[C@@H]2CCCC[C@@H]21` is below 10 mL/min/g. Could you check?
stdout: Condition not met

stdin: Threshold test, CLH < 10 mL/min/g: `Nc1nc(N2CCC[C@H]2c2nc3cccc(Cl)c3c(=O)n2-c2ccccc2)c2nc[nH]c2n1`
stdout: Condition not met

stdin: # TODO verify CLH < 10 mL/min/g strictly for this compound: `C[C@H]1CC[C@@H](c2nc3cccc(Cl)c3c(=O)n2-c2cccnc2)N1c1ncnc(N)c1C#N`
stdout: Condition not met

stdin: Record `N#Cc1c(N)ncnc1N1CC(F)(F)C[C@H]1c1nc2cccc(Cl)c2c(=O)n1-c1ccccc1` : is its CLH strictly below 10 mL/min/g?
stdout: Condition met

###

Please respond with reported half-life at 60 h, 10 µM for every item in the list.
test: in vitro; conditions: human, liver microsomes
Answers are plain numbers, in h.

{"columns": ["compound-structure", "units", "half-life at 60 h, 10 µM"],
 "data": [
  ["N#Cc1c(N)ncnc1N1[C@H](c2nc3cccc(Cl)c3c(=O)n2-c2ccccc2)C[C@@H]2CCCC[C@@H]21", "h", 1.17]
]}

Here's the next entry for you.
stdin: Which half-life at 60 h, 10 µM value belongs to `C[C@H]1CC[C@@H](c2nc3cccc(Cl)c3c(=O)n2-c2ccccc2)N1c1ncnc(N)c1C#N` ?
stdout: 1.02
